test system: Allergic Human Purified Peripheral Blood Eosinophils; assay: Percent eosinophil apoptosis (Annexin V-FITC, flow cytometry) in allergic human purified peripheral blood eosinophils; assay type: cell-based; settings: Homo sapiens, Eosinophil; 10 μg/mL test compound, IL-5 (50 pM), 18 hr incubation, annexin Vpos; assay SD +/-2.3%; read-out: Percent of apoptotic EO cells
Each item that follows carries a reported Percent apoptotic eosinophils (annexin V-positive) at 10 µg/mL.
Numbers only here, please. The scale is %.

| MOLECULE | MEASUREMENT_TARGET | OBS_VALUE |
| --- | --- | --- |
| CCCCC(C)CC(C)C(=O)N(C)[C@@H](CC(C)C)C(=O)N[C@H](C(=O)N(C)[C@H](C(=O)N1CCC[C@H]1C(=O)N1C(=O)C=CC1=O)C(C)C)C(C)OC(C)=O (stereo partly shown) [Compound 12a] | Allergic Human Purified Peripheral Blood Eosinophils | 42.1 |

Inquiry: Identify the reported Percent apoptotic eosinophils (annexin V-positive) at 10 µg/mL for the following entry. CCCCC(C)CC(C)C(=O)N(C)CC(=O)N[C@H](C(=O)N(C)CC(=O)N1C[C@@H](O)C[C@H]1C(=O)N1C(=O)C=C[C@@H]1C)C(C)OC(C)=O (stereo partly shown)
Reply text: 39.9

Inquiry: Return reported Percent apoptotic eosinophils (annexin V-positive) at 10 µg/mL. Input molecule: CC/C=C\C/C=C\C/C=C\C/C=C\C/C=C\CCCC(=O)N(C)[C@@H](CC(C)C)C(=O)N[C@H](C(=O)N(C)[C@H](C(=O)N1C[C@@H](O)C[C@H]1C(=O)N1C(=O)C=C[C@@H]1C)C(C)C)C(C)OC(C)=O (stereo partly shown) [Compound 27a]
Reply text: 56.5

Inquiry: Fill in reported Percent apoptotic eosinophils (annexin V-positive) at 10 µg/mL for this entry: CCCC[C@@H](C)C[C@@H](C)C(=O)N(C)[C@@H](CC(C)C)C(=O)N[C@H](C(=O)N(C)[C@H](C(=O)N1C[C@@H](O)C[C@H]1C(=O)N1C(=O)C=C[C@@H]1C)C(C)C)C(C)OC(C)=O (stereo partly shown)
Reply text: 53.2

* * *

test system: Allergic Human Purified Peripheral Blood Eosinophils; test: Percent eosinophil apoptosis (Annexin V-FITC, flow cytometry) in allergic human purified peripheral blood eosinophils; type: cell-based; settings: Homo sapiens, Eosinophil; 10 μg/mL test compound, IL-5 (50 pM), 18 hr incubation, annexin Vpos; assay SD +/-2.3%; read-out: Percent of apoptotic EO cells
Where a SMILES comes first, the peptide text is derived from it. [ ]: non-standard residue; d: D form. The star is where a group is joined. cisHyp = O=C(O)[C@@H]1C[C@H](O)CN1; NMeL = CN[C@@H](CC(C)C)C(=O)O; NMeV = CN[C@H](C(=O)O)C(C)C; Octanoyl = CCCCCCCC(=O)*
Percent apoptotic eosinophils (annexin V-positive) at 10 µg/mL reference
Number only, in %; omit the unit.

Solved entries:
| MOLECULE | MEASUREMENT_TARGET | OBS_VALUE |
| --- | --- | --- |
| CCCCC(C)CC(C)C(=O)N(C)[C@@H](CC(C)C)C(=O)N[C@H](C(=O)N(C)[C@H](C(=O)N1C[C@@H](O)C[C@H]1C(=O)N1C(=O)C=C[C@@H]1C)C(C)C)C(C)OC(C)=O (some centres unmarked) | Allergic Human Purified Peripheral Blood Eosinophils | 55 |
| CCCCC(C)CC(C)C(=O)N(C)[C@@H](CC(C)C)C(=O)N[C@@H](COC(C)=O)C(=O)N(C)[C@H](C(=O)N1C[C@@H](O)C[C@H]1C(=O)N1C(=O)C=C[C@@H]1C)C(C)C (some centres unmarked) | Allergic Human Purified Peripheral Blood Eosinophils | 56.4 |
| CCCCCCCC(=O)N(C)[C@@H](CC(C)C)C(=O)N[C@@H](COC(C)=O)C(=O)N(C)[C@H](C(=O)N1C[C@@H](O)C[C@H]1C(=O)OC)C(C)C [Compound 17a] (Octanoyl-[NMeL]S(Ac)[NMeV][cisHyp]-OMe) | Allergic Human Purified Peripheral Blood Eosinophils | 48.2 |
| CC/C=C\C/C=C\C/C=C\C/C=C\C/C=C\CCCC(=O)N(C)[C@@H](Cc1ccccc1)C(=O)N[C@H](C(=O)N(C)[C@H](C(=O)N1CCC[C@H]1C(=O)N1C(=O)C=CC1=O)C(C)C)C(C)O (some centres unmarked) [Compound 25a] | Allergic Human Purified Peripheral Blood Eosinophils | 73.1 |

Proceeding to the next molecule to report its Percent apoptotic eosinophils (annexin V-positive) at 10 µg/mL.
Inquiry: Report Percent apoptotic eosinophils (annexin V-positive) at 10 µg/mL, nothing else, for this molecule: CC/C=C\C/C=C\C/C=C\C/C=C\C/C=C\CCCC(=O)N(C)[C@@H](CC(C)C)C(=O)N[C@H](C(=O)N(C)[C@H](C(=O)N1C[C@@H](O)C[C@H]1C(=O)N1C(=O)C=CC1=O)C(C)C)C(C)O (some centres unmarked) [Compound 22a]
Reply text: 68.7
